Recorded values, source the supplement of paper PMC10899765.

System: MCF10A
PROTOCOL_DETAILS: percent viability (nuclei count relative to siNT); higher = more viable cells
EXPERIMENTAL_SETUP: 20 nM; 72 h
Decision: percent viability beneath 40% gives 1 (yes); percent viability meeting or exceeding 40% gives 0 (no).

Would you please look over these solved cases?
# CHAIN, ASSIGNED_LABEL
measured = [
    ("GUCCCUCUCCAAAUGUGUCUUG [hsa-miR-642a-5p]", "0 (no)"),
    ("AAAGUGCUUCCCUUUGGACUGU [hsa-miR-520a-3p]", "0 (no)"),
    ("UUGGUGAGGACCCCAAGCUCGG [hsa-miR-7855-5p]", "1 (yes)"),
    ("AAAAGCUGGGUUGAGAGGGU [hsa-miR-320c]", "0 (no)"),
    ("GGGAUGGUAGACCGGUGACGUGC [hsa-miR-1193]", "1 (yes)"),
    ("CCUCCCUGCCCGCCUCUCUGCAG [hsa-miR-7113-3p]", "0 (no)"),
]

Query: Hi there! Is percent viability for AGGCGCACCCGACCACAUGC [hsa-miR-6722-5p] below 40%, do you know?
Response: 1 (yes)

Query: Hi there! Is percent viability for UCCCUGCCCCCAUACUCCCAG [hsa-miR-6752-3p] below 40%, do you know?
Response: 1 (yes)

Query: Hi there! Is percent viability for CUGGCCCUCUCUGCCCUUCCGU [hsa-miR-328] below 40%, do you know?
Response: 0 (no)

Query: Hi there! Is percent viability for CCCCUGGGCCGGCCUUGG [hsa-miR-4292] below 40%, do you know?
Response: 1 (yes)

Query: Hi there! Is percent viability for GUGAGUAGUGGCGCGCGGCGGC [hsa-miR-6869-5p] below 40%, do you know?
Response: 1 (yes)

Query: Hi there! Is percent viability for GAAGAAUAGGAGGGACUUUGU [hsa-miR-6507-5p] below 40%, do you know?
Response: 0 (no)

###

Test system: MCF10A
PROTOCOL_DETAILS: percent viability (nuclei count relative to siNT); higher = more viable cells
EXPERIMENTAL_SETUP: 20 nM; 72 h
Here, each record is paired with measured percent viability data.
Number in %, nothing else.

Here's what some known entries look like.
# CHAIN, percent viability (%)
rows = [
    ("AGCUUCUUUACAGUGCUGCCUUG [hsa-miR-103a-2-5p]", 36.7),
    ("AGGGGGAUGGCAGAGCAAAAUU [hsa-miR-5010-5p]", 44.2),
    ("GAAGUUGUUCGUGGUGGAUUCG [hsa-miR-382-5p]", 37.7),
]

Entry AUAGCAAUUGCUCUUUUGGAA [hsa-miR-4766-3p] , tested on MCF10A, has a reported percent viability of 38.1

Entry GAGGGUCUUGGGAGGGAUGUGAC [hsa-miR-1182] , tested on MCF10A, has a reported percent viability of 104

Entry GUGCCAGCUGCAGUGGGGGAG [hsa-miR-1202] , tested on MCF10A, has a reported percent viability of 76.5

Entry UGGUCGACCAGUUGGAAAGUAAU [hsa-miR-412-5p] , tested on MCF10A, has a reported percent viability of 46.8

Entry UCCAGUACAGGUCUCUCAUUUC [hsa-miR-4712-5p] , tested on MCF10A, has a reported percent viability of 81.3

Entry GCGGGGGUGGCGGCGGCAUCCC [hsa-miR-4787-5p] , tested on MCF10A, has a reported percent viability of 86.7

Entry GUUUUACCACCUCCAGGAGACU [hsa-miR-2681-5p] , tested on MCF10A, has a reported percent viability of 36

Entry CUCUAGAGGGAAGCACUUUCUG [hsa-miR-518d-5p] , tested on MCF10A, has a reported percent viability of 57.8

Entry GCAGAGUGCAAACAAUUUUGAC [hsa-miR-759] , tested on MCF10A, has a reported percent viability of 90.2

Entry GAACGCGCUUCCCUAUAGAGGGU [hsa-miR-523-3p] , tested on MCF10A, has a reported percent viability of 119

Entry AUCUGCUCUCUUGUUCCCAG [hsa-miR-6828-3p] , tested on MCF10A, has a reported percent viability of 43.4

Entry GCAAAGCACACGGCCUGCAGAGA [hsa-miR-330-3p] , tested on MCF10A, has a reported percent viability of 83.2

Entry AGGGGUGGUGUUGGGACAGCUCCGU [hsa-miR-608] , tested on MCF10A, has a reported percent viability of 10.6

Entry CCCUCUCUGUCCCACCCAUAG [hsa-miR-6769b-3p] , tested on MCF10A, has a reported percent viability of 73.7

Entry UGACUCUGCCUGUAGGCCGGU [hsa-miR-4522] , tested on MCF10A, has a reported percent viability of 16.2
